Measurement Target: purified class A, C and D enzymes (Enterobacter cloacae, UniProt P05364)
Sequence (P05364 21-381): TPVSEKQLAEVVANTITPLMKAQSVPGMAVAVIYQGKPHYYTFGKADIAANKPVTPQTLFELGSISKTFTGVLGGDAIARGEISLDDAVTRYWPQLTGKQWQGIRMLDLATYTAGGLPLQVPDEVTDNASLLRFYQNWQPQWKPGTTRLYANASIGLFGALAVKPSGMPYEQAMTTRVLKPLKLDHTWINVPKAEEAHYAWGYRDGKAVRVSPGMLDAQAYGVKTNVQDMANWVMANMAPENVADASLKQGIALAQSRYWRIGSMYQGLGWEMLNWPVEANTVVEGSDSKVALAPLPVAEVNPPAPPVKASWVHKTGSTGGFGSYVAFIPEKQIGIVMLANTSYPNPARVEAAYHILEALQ
Format: biochemical
Measurement Setup: purified P99/AmpC of ECL; nitrocefin reporter substrate
Recorded Endpoint: Ki (P99/AmpC of ECL, NCF)

- Smiles Structure: "COc1ccc2c(c1C(=O)O)OB(O)[C@@H](Sc1c[nH]nn1)C2"
  Measurement Target: "purified class A, C and D enzymes (Enterobacter cloacae, UniProt P05364)"
  Ki (P99/AmpC of ECL, NCF): "Y (0.1 μM to 1 μM)"
- Smiles Structure: "COc1ccc2c(c1C(=O)O)OB(O)[C@@H](SC1CN(S(N)(=O)=O)C1)C2"
  Measurement Target: "purified class A, C and D enzymes (Enterobacter cloacae, UniProt P05364)"
  Ki (P99/AmpC of ECL, NCF): "Y (0.1 μM to 1 μM)"
- Smiles Structure: "Cc1ccc2c(c1C(=O)O)OB(O)[C@@H](Sc1nnc(N)s1)C2"
  Measurement Target: "purified class A, C and D enzymes (Enterobacter cloacae, UniProt P05364)"
  Ki (P99/AmpC of ECL, NCF): "Y (0.1 μM to 1 μM)"
- Smiles Structure: "Nc1nnc(S[C@H]2Cc3ccc(-n4ccnn4)c(C(=O)O)c3OB2O)s1"
  Measurement Target: "purified class A, C and D enzymes (Enterobacter cloacae, UniProt P05364)"
  Ki (P99/AmpC of ECL, NCF): "Y (0.1 μM to 1 μM)"
- Smiles Structure: "Nc1nnc(S[C@H]2Cc3ccc(Cl)c(C(=O)O)c3OB2O)s1"
  Measurement Target: "purified class A, C and D enzymes (Enterobacter cloacae, UniProt P05364)"
  Ki (P99/AmpC of ECL, NCF): "Z (Greater than 1 μM)"
- Smiles Structure: "COc1ccc2c(c1C(=O)O)OB(O)[C@@H](Sc1nnc(CN3CCNCC3)n1N)C2"
  Measurement Target: "purified class A, C and D enzymes (Enterobacter cloacae, UniProt P05364)"
  Ki (P99/AmpC of ECL, NCF): "Z (Greater than 1 μM)"
- Smiles Structure: "COc1ccc2c(c1C(=O)O)OB(O)[C@@H](Sc1nncn1C)C2"
  Measurement Target: "purified class A, C and D enzymes (Enterobacter cloacae, UniProt P05364)"
  Ki (P99/AmpC of ECL, NCF): "Y (0.1 μM to 1 μM)"
- Smiles Structure: "COc1ccc2c(c1C(=O)O)OB(O)[C@@H](Sc1nnc(C(F)(F)F)n1N)C2"
  Measurement Target: "purified class A, C and D enzymes (Enterobacter cloacae, UniProt P05364)"
  Ki (P99/AmpC of ECL, NCF): "Z (Greater than 1 μM)"

Let's switch to this molecule now.
Incoming: Report Ki (P99/AmpC of ECL, NCF) under test system purified class A, C and D enzymes (Enterobacter cloacae, UniProt P05364) for COc1ccc2c(c1C(=O)O)OB(O)[C@@H](Sc1nnc(NCCN3CCNCC3)s1)C2 .
Outgoing: Y (0.1 μM to 1 μM)

====

Measurement Target: purified class A, C and D enzymes (Enterobacter cloacae, UniProt P05364)
Format: biochemical
Measurement Setup: purified P99/AmpC of ECL; nitrocefin reporter substrate
Recorded Endpoint: Ki (P99/AmpC of ECL, NCF)

Solved cases below.
- Smiles Structure: "COc1ccc2c(c1C(=O)O)OB(O)[C@@H](Sc1nnc(N)s1)C2"
  Ki (P99/AmpC of ECL, NCF): "Y (0.1 μM to 1 μM)"
- Smiles Structure: "COc1ccc2c(c1C(=O)O)OB(O)[C@@H](SCCc1nnc(N)s1)C2"
  Ki (P99/AmpC of ECL, NCF): "X (Less than 0.1 μM)"
- Smiles Structure: "COc1ccc2c(c1C(=O)O)OB(O)[C@@H](Sc1nc(N)n[nH]1)C2"
  Ki (P99/AmpC of ECL, NCF): "Y (0.1 μM to 1 μM)"
- Smiles Structure: "COc1c(Cl)cc2c(c1C(=O)O)OB(O)[C@@H](Sc1nnc(N)s1)C2"
  Ki (P99/AmpC of ECL, NCF): "Y (0.1 μM to 1 μM)"
- Smiles Structure: "N#CCOc1ccc2c(c1C(=O)O)OB(O)[C@@H](Sc1nncs1)C2"
  Ki (P99/AmpC of ECL, NCF): "Z (Greater than 1 μM)"

Incoming: Report Ki (P99/AmpC of ECL, NCF) under test system purified class A, C and D enzymes (Enterobacter cloacae, UniProt P05364) for COc1ccc2c(c1C(=O)O)OB(O)[C@@H](Sc1nnc(NCCN)s1)C2 .
Outgoing: Y (0.1 μM to 1 μM)

Incoming: Report Ki (P99/AmpC of ECL, NCF) under test system purified class A, C and D enzymes (Enterobacter cloacae, UniProt P05364) for COc1ccc2c(c1C(=O)O)OB(O)[C@@H](Sc1nnc(CN)n1N)C2 .
Outgoing: Z (Greater than 1 μM)

Incoming: Report Ki (P99/AmpC of ECL, NCF) under test system purified class A, C and D enzymes (Enterobacter cloacae, UniProt P05364) for O=C(O)c1cccc2c1OB(O)[C@@H](Sc1nnc(NC3CNC3)s1)C2 .
Outgoing: X (Less than 0.1 μM)

Incoming: Report Ki (P99/AmpC of ECL, NCF) under test system purified class A, C and D enzymes (Enterobacter cloacae, UniProt P05364) for NC(=O)CS[C@H]1Cc2ccc(F)c(C(=O)O)c2OB1O .
Outgoing: Y (0.1 μM to 1 μM)
